Experiment: chemical genetic growth profiling, strain panel (AID 1159580);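 note: tested at 20 µM; growth read once vehicle control cultures reached saturation at 30 °C; 1 = growth at the plate median or of vehicle wells; lower values mean less growth of the strain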
Test Parameters: S. cerevisiae deletion strains, growth OD, strain NNK1, hits give low values
Screen size: about 5,500 compounds; about 2,000 (36%) were called active. Not shown: some 18% with an inconclusive outcome. The list shows a part of the results.
Property: normalized growth

Would you please look over these solved cases?
C/C(=N/OC(=O)Nc1ccc(Cl)cc1)c1ccc2c(c1)CCO2 : 0.951 (inactive)
O=C(Nc1cccc(C(F)(F)F)c1)Oc1ccc(F)cc1Cl : 0.989 (inactive)
CCCCCCCC1CCC/C1=N/OC(=O)c1cccs1 (stereo unspecified) : 0.987 (inactive)
Cc1cc(C(=O)O/N=C(/N)c2ccc([N+](=O)[O-])o2)no1 : 0.94 (inactive)
N#CC1=C(N)C(C#N)(C#N)C2(CCCCC2)C2CCCC=C12 (stereo unspecified) : 0.985 (inactive)

// each listed compound needs a value for normalized growth
1. COCCOc1ccccc1NC(=S)SCCSC(=S)Nc1ccccc1OCCOC
2. O=C(Nc1ccc(Cl)cc1Cl)c1cnccc1C(F)(F)F
3. O=C(CO/N=C\c1ccc(Cl)cc1Cl)NNC(=S)Nc1cc(Cl)ccc1Cl
4. CCCC1c2ccsc2CCN1C(=S)Nc1ccc(Cl)cc1Cl (stereo unspecified)
5. OC(c1ccc(C(F)(F)F)cc1)c1cccc(C(F)(F)F)c1 (stereo unspecified)
6. COc1cc(Cl)c(NS(=O)(=O)c2cc(Br)c(Br)s2)c(OC)c1

["0.981 (inactive)", "0.971 (inactive)", "0.997 (inactive)", "0.965 (inactive)", "0.975 (inactive)", "0.975 (inactive)"]
